endpoint: melting point

1) CCCCCNc1nc(SC)[nH]c2nccc1-2	134 to 137 °C
2) O=c1[nH]cnc2ccc(-c3cccnc3)cc12	240 to 246 °C
3) COc1cc(COc2nn(CCO)cc2CO)ccc1OCc1nc(-c2ccco2)oc1C	120 to 122 °C
4) CCCCCCCCCCCCCCOc1ccc(CCNC(=O)Cc2cccc(CBr)c2)cc1	75 to 77 °C
5) Cc1oc(-c2cccc(CCc3ccccc3)c2)nc1CCOc1ccc(OC(C)(C)C(=O)O)cc1	124 to 125 °C
6) COc1cc2ncnc(N3CCN(C(=O)NCc4ccc(C(C)C)cc4)CC3)c2cc1OC	135 to 136 °C
7) CC(=NO)c1cnc2c(NC(=O)c3c(Cl)cccc3Cl)cccc2c1	215 to 243 °C
8) COC(=O)[C@@H]1COC(=O)N1c1nc(-c2ccc(Br)cc2)cs1	165 to 167 °C
9) COCC1COc2cc3ncnc(Nc4cccc(Br)c4)c3cc2O1 (centres undefined)	268 to 274 °C
10) CCCOc1ccccc1-c1nc2cc3c(cc2c(=O)[nH]1)NCN3CC	147 to 149 °C
11) O=C1OC(O)c2c1cccc2[N+](=O)[O-] (centres undefined)	153 to 156 °C
12) NC(N)=Nc1nc(-c2cccc(CO)n2)cs1	229 °C
13) CCOC(=O)c1cnn2c1c(=S)[nH]c1ccccc12	270 to 272 °C
14) N#Cc1cccc(-c2ccccn2)n1	136 to 137 °C
15) Cc1ccc(-c2nc(=O)c3ccccc3s2)n1C	194 to 196 °C
16) CC(=O)Nc1ccc(-c2cc3[nH]c(=O)[nH]c3nc2C)cc1	> 300 °C
17) N=C(NO)c1ccc(N)nc1	300 °C
18) CCS(=O)c1ccc(-c2nc3n(c2-c2ccncc2)CCC3)cc1 (centres undefined)	108 to 110 °C
19) CC1(O[Si](C)(C)C(C)(C)C)CN(c2ccc(N3C[C@H](CO)OC3=O)cc2F)C1	144 °C

###

Overview of reported melting point across a group of compounds:
endpoint: melting point

1) CC(C)N1CCC(CNc2ccccc2C(=O)Nc2ccc(Cl)cn2)CC1	277 to 280 °C
2) CC1(C)C=C(c2ccccc2)c2ccccc2N1	79.5 to 81 °C
3) O=C(O)[C@@H]1CC[C@H](c2ccccc2)N1C(=O)CCS	61 to 64 °C
4) Cc1ccc(Cl)c(N2C(=O)C(=NO)c3ccccc32)c1Cl	190 to 191 °C
5) COC(=O)C(C)=Cc1ccc(OCCCNc2ccc(Cl)cc2)cc1	62 to 64 °C
6) Cc1cc(NC(=O)OC(C)(C)C)c([N+](=O)[O-])cc1C#Cc1ccccc1	161 to 164 °C
7) CCOC(=O)C1=C(C(=O)OCC)C(c2cccc([N+](=O)[O-])c2)C(C(=O)OCC)=C(C(=O)OCC)N1	121 to 124 °C
8) CC1(C)OC(=C(C#N)C#N)C(C#N)=C1c1ccc(Br)cc1	235 °C
9) CCCN1C=CSC1S(=O)(=O)N=NC(=O)Nc1nc(OC)cc(OC)n1 (stereo not given)	166 to 167 °C
10) COC(=O)C(Cc1ccc(OCCN(C)c2nc3ccccc3o2)cc1)Sc1ccc(C)cc1 (stereo not given)	88.6 to 90.1 °C
11) COc1cc2c(cc1C(C)=O)CC1(CCCCN1C(=O)C(F)(F)F)CC2 (stereo not given)	156 to 157 °C
12) COc1ccc(S(=O)(=O)n2c(Cl)nc3c2c(=O)n(CC2CC2)c(=O)n3CC2CC2)cc1	118 °C
13) NC(=O)NCc1cc2c(Oc3ccc(Cl)cc3)cncc2s1	202 to 204 °C
14) CC(=O)CC1CC2CN(C(=O)c3ccccc3)c3cccc(c32)C1=O (stereo not given)	117 to 119 °C
15) C=CCN(c1ccc(OC)cc1)S(=O)(=O)c1c(F)c(F)c(F)c(F)c1F	59 to 60 °C
16) CCOc1c(OC)cc(C(=O)OC)c(-c2c(C(=O)OC)cc(OC)c3c2OCO3)c1OCC	107 to 108 °C
17) N#Cc1ccc(-c2nc(-c3ccc(F)cc3)c(-c3ccnc4ccccc34)[nH]2)cc1	294 to 295 °C
18) CCOC(=O)c1nc(S)n2c1c(=O)n(C)c1cc(C(F)(F)F)ccc12	282 °C
19) CC(C)(Sc1cc(C(C)(C)C)c(O)c(C(C)(C)C)c1)Sc1cc(C(C)(C)C)c(OCC[C@H](O)CO)c(C(C)(C)C)c1	110 to 112 °C
20) Cc1ccccc1C=C1CCn2c1nc1ccc(C(N)=O)cc1c2=O	347 to 349 °C
21) CCCC1Cc2c(c(C)c(C)c3oc(C(=O)O)cc23)C1=O (stereo not given)	287 °C
22) COc1ccc(CNC(=O)n2cc(F)c(=O)[nH]c2=O)c(OC)c1OC	159 °C
23) CC(C)(O)c1ccc(CNC(=O)c2cccnc2Oc2ccc3nsnc3c2)c(F)c1	124 to 125 °C
24) CCCCCCCCCCCCCCc1ccc(OCC(O)CO)c(CC)c1 (stereo not given)	55 to 56 °C
25) CCCCCCC(C)(C)c1ccc([C@@H]2CCC[C@H](O)C2)c(O)c1 (relative stereo)	109 to 110 °C
26) COc1nc2cc(Cl)c(C)c(NS(C)(=O)=O)c2nc1OC	228 to 229 °C
27) O=C(NCCCCCCO)OC1CCN(C(=O)Oc2ccc(Oc3ccccc3)cc2)CC1	69 to 72 °C
28) COc1cc(C=C2SC(N3CCCC3)=NC2=O)cc(-c2ccc(O)c(C34CC5CC(CC(C5)C3)C4)c2)c1O	353 to 355 °C
29) CCCCc1nc2c(N)nc3ccccc3c2n1OC(C)C	118 to 119 °C
30) CCCCn1c(=O)[nH]c(C(F)(F)F)c(Cl)c1=O	138 to 139 °C
